MEASUREMENT TARGET: human Edg-1 (S1P1) (Homo sapiens)
Construct: expressed in transfected cells; host or cells: HEK-293
Sequence (P21453 whole entry): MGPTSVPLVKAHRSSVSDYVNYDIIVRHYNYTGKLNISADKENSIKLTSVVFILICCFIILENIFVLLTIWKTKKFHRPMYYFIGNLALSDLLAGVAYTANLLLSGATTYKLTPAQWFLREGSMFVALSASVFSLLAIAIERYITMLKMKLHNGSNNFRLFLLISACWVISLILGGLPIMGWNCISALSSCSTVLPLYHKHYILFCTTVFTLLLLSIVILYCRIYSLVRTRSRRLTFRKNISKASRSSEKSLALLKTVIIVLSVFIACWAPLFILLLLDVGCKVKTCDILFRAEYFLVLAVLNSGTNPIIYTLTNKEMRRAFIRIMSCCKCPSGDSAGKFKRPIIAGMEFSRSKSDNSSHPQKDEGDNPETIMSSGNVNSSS
EXPERIMENT: S1P1 binding assay: inhibition of [33P]-S1P binding to membrane fraction of HEK-293 cells transferred with the human Edg-1 (S1P1) gene
STATED CONDITIONS: test compound 10 μM; inhibition of [33P]-S1P binding, membrane fraction
Returns one of criterion met or criterion not met; criterion met when inhibition at 10 µM is >= 90%.

- MOL SMILES: "CCn1c(Oc2cccc(N3CCN(C)CC3)c2)nnc1[C@@H](C)NS(=O)(=O)c1ccc2cc(C)ccc2c1"
  CAT: "criterion met"
- MOL SMILES: "CCn1c(Oc2ccc(F)c(N3CCN(C)CC3)c2)nnc1[C@@H](C)NS(=O)(=O)c1ccc2c(Cl)cccc2c1"
  CAT: "criterion met"
- MOL SMILES: "CCn1c(Oc2cccc(N3CCN(C)CC3)c2)nnc1[C@@H](C)NS(=O)(=O)c1cccc(Cl)c1C"
  CAT: "criterion met"
- MOL SMILES: "CCn1c(Oc2cccc(N3CCN(C)CC3)c2)nnc1[C@@H](C)NS(=O)(=O)c1ccc(S(C)(=O)=O)cc1"
  CAT: "criterion not met"
- MOL SMILES: "CCn1c(Oc2cccc(N3CCN(C)CC3)c2)nnc1[C@@H](C)NS(=O)(=O)c1ccc(F)cc1C(F)(F)F"
  CAT: "criterion not met"
- MOL SMILES: "CCn1c(Oc2ccc3cc[nH]c3c2)nnc1[C@@H](C)NS(=O)(=O)c1ccc(F)c(C#N)c1"
  CAT: "criterion not met"
- MOL SMILES: "CCn1c(Oc2cccc(N3CCN(C)CC3)c2)nnc1[C@@H](C)NS(=O)(=O)c1ccc(C(C)C)cc1"
  CAT: "criterion not met"
- MOL SMILES: "CCn1c(Oc2cccc(N3CCN(C)CC3)c2)nnc1[C@@H](C)NS(=O)(=O)c1c(C)cccc1Cl"
  CAT: "criterion not met"
- MOL SMILES: "CCn1c(Oc2cccc(N3CCN(C)CC3)c2)nnc1[C@@H](C)NS(=O)(=O)c1cc(Br)cc(C(F)(F)F)c1"
  CAT: "criterion not met"
- MOL SMILES: "CCn1c(Oc2ccc3cc[nH]c3c2)nnc1[C@@H](C)NS(=O)(=O)c1cc(F)cc(Cl)c1C"
  CAT: "criterion not met"
- MOL SMILES: "CCn1c(Oc2cccc(N3CCN(C)CC3)c2)nnc1[C@@H](C)NS(=O)(=O)c1ccc(C)c(C)c1"
  CAT: "criterion met"
- MOL SMILES: "CCn1c(Oc2ccc3cc[nH]c3c2)nnc1[C@@H](C)NS(=O)(=O)c1csc2ccccc12"
  CAT: "criterion not met"

---

melting point listing for selected compounds.
ENDPOINT NAME: melting point

- MOL SMILES: "CCn1c(Oc2cccc(NC(C)=O)c2)nnc1[C@@H](C)NS(=O)(=O)c1ccc(Cl)c(Cl)c1"
  MEASUREMENT: "160 to 165 °C"
- MOL SMILES: "COc1ccc(Oc2nnc([C@@H](C)NS(=O)(=O)c3ccc(Cl)c(Cl)c3)n2C2CC2)cc1"
  MEASUREMENT: "148.5 to 150 °C"
- MOL SMILES: "CCn1c(Oc2ccc3cc[nH]c3c2)nnc1[C@@H](C)NS(=O)(=O)c1ccc2cccc(Cl)c2c1"
  MEASUREMENT: "214.5 to 218 °C"
- MOL SMILES: "CCn1c(Oc2ccc(C)cc2)nnc1[C@H](C)NS(=O)(=O)c1ccc(Cl)c(Cl)c1"
  MEASUREMENT: "186 to 188.5 °C"
- MOL SMILES: "CCn1c(Oc2cccc(N3CCN(C)CC3)c2)nnc1[C@@H](C)NS(=O)(=O)c1ccc2ccc(Cl)cc2c1"
  MEASUREMENT: "197 to 201 °C"
- MOL SMILES: "CCn1c(Oc2ccc(OC(F)(F)F)cc2)nnc1[C@@H](C)NS(=O)(=O)c1ccc(Cl)c(Cl)c1"
  MEASUREMENT: "173.5 to 174.5 °C"
- MOL SMILES: "CCn1c(Oc2cccc(N3CCN(C)CC3)c2)nnc1[C@@H](C)NS(=O)(=O)c1ccc2c(Cl)ccc(Cl)c2c1"
  MEASUREMENT: "189 to 191 °C"

Where do these numbers come from? They come from patent US8022091B2.
